src = the nanobody polyreactivity screen of Harvey et al. (2022)

assay-method-text: yeast display, Sf9 membrane polyspecificity reagent, FACS + sequencing; frameworks hold sequencing errors
property-measured: polyreactivity (PSR sort gate)

construct-sequence	polyreactivity (PSR sort gate)
QVQLVESVGGLVQAGGSLRLSCASSGYIFAYYGMGWYRQAPGNERELVAAISWSGGSTDYADSVKGRFTISRDNAKNTGYLQMNRLKPEDTAVYYCATRKYADRESDYWGQVTQVTVSS	high polyreactivity
QVQLEESGGGIVQAGGSLRLSCAASGSIIILYAMGWSRQAPGKEREFVAAITWSGGSTYYADSVKGRFTISRDNAKNTVYLQMNSLKPEDTAVYYCAARIRTVAHVDYDYWGQGTQVTVSS	high polyreactivity
QVQLVESGGGLVQAGGSLRLSCAASGSIFTSYAMGWYRQAPGKERELVAAISSSGSTYYADSVKGRFTISRDNAKNTVYLQMNSLKPEDTAVYYCNADSRTAGLNSEYDYWGQGTQVTVSS	low polyreactivity
QVQLVESGGGLVQAGGSLRISCAASGFIFVTYAMGWYRQAPGKERELVAAITNSGGTTYYADSVKGRFTISRDNAKNTVYLQMNSLKPEDTAVYYCNKPYGAETAHREFDYWGQGTQVTVSS	low polyreactivity

**Query** What polyreactivity (PSR sort gate) value was documented for this sequence, QVQLVESGGGLVQAGGSLRLSCAASGYTFRYYAMGWYRQAPGKERELVAAINWSGGSTYYADSVKGRFTISRDNAKNTVYLQMNSLKPEDTAVYYCAADPDGDLDIDYDYWGQGTQVTVSS ?
**Result** low polyreactivity
